B1: HDV Ribozyme (parent)
chain: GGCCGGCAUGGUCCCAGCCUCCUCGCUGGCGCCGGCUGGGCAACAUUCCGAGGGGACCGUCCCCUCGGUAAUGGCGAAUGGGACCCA

variants of: B1; test: self-cleavage, relative activity (ratio to wild type); higher = more cleavage; co-transcriptional
Each entry below carries its reported self-cleavage.
Give the value as a plain number.

Consider the worked cases shown below.
entrySequence	measuredParameter	measurement
GGCCGGCAUGGUCCCAGUGUCCUCGCUGGCGCCGGCUGGGCAACAUUCCGAGGGGACCGUCCCCUCGGUAAUGGCGAAUGGGACCCA [C18U C19G]	self-cleavage	0.0297
GGCCGGCAUGGUCCCAGCCUCCUCGCUGGCGCCGGCUGGGCAACAUUGCGAGGGGACCGUCCCUUCGGUAAUGGCGAAUGGGACCCA [C48G C64U]	self-cleavage	0.85
GGCCGGCAUGGUCCCAGCCUCCUCGCUGGCGCCGGCUGGGCAACAUUCCGAGGAGACCGUCCCCUCGGUAACGGCGAAUGGGACCCA [G54A U72C]	self-cleavage	0.61
GGCCGGCAUGGUCCCAGCCUCCUCGCUGGCGCCGGCUGGGCAACAUUCCGAGGCGACCGUCCCGUCGGUAAUGGCGAAUGGGACCCA [G54C C64G]	self-cleavage	0.787

Task item: Report self-cleavage for GGCCGGCAUGGUCCCAGCCUCCUCGCUGGCGCCUGCUGGGCAACAUUCCGAGGCGACCGUCCCCUCGGUAAUGGCGAAUGGGACCCA [G34U G54C] please.
Reply: 0.0468

Task item: // returns reported self-cleavage for input GGCCGGCAUGGUCCCAGCCUCCUCGCUGGCGCCGGCUGGGCAACAUUCCGAGGGGACCGUCCCCUCGGGAAUGGCGAAUGGGACCGA [U69G C86G]
Reply: 0.692
